assayNotes: in vivo
conditionNotes: NSG, mouse, ip
measureName: MTD (mg/kg)
Just the number please, in mg/kg, no unit attached.

[Q] What value of MTD has been recorded for this entry: CNC(=O)c1ccc(N2C(=S)N(c3ccc(C#N)c(C(F)(F)F)c3)C(=O)C2(C)C)cc1F [Enz, enzalutamide]
[A] 15
